Each entry below carries its recorded HER effect (crop damage, herbicide without safener).
# Test system: ZEAMA Sileno
# ASSAY PROTOCOL: Seed treatment with safener; post-emergence herbicide application
# Format: in vivo, maize
# CONDITIONS: HER dose 32 g a.i./ha, no safener, Final assessment
# Experimental: For the safener seed treatment, sufficient seeds of the respective crops (spring wheat, TRZAS; spring barley, HORVS; maize, ZEAMA) were weighed into screw top glass bottles approximately twice the volume of the seeds. The specified safeners, formulated as wettable powder (WP) were weighed out so that the specified rates (g a.i./kg seed) would be obtained, dissolved in water (1 ml water per 10 g of seeds), and added to the seeds to produce a slurry. […]
READOUT KIND: HER effect (crop damage, herbicide without safener) (%)

>  <COMPOUND>
C=CC1(C(=O)NC2C=C(C(=O)OC)OC2)CC(c2cc(C)cc(C)c2)=NO1 (stereo not shown)

>  <UNIT TEXT>
%

>  <NUMERIC READOUT>
94

$$$$
>  <COMPOUND>
C=CCOC(=O)C1CC(NC(=O)C2(C)CC(c3cc(F)cc(F)c3)=NO2)CO1 (mixture of isomers)

>  <UNIT TEXT>
%

>  <NUMERIC READOUT>
88

$$$$
>  <COMPOUND>
COC(=O)C1C=CC(NC(=O)C2(C(F)(F)F)CC(c3cccc(F)c3)=NO2)C1 (stereo not shown)

>  <UNIT TEXT>
%

>  <NUMERIC READOUT>
97

$$$$
>  <COMPOUND>
C=CC1(C(=O)NC2CC=C(C(=O)OC)C2)CC(c2cc(F)cc(F)c2)=NO1 (mixture of isomers)

>  <UNIT TEXT>
%

>  <NUMERIC READOUT>
65

$$$$
>  <COMPOUND>
C=CC1(C(=O)NC2COC(C(=O)OC)C2)CC(c2cc(C)cc(F)c2)=NO1 (mixture of isomers)

>  <UNIT TEXT>
%

>  <NUMERIC READOUT>
32

$$$$
>  <COMPOUND>
C=CCOC(=O)C1CC(NC(=O)C2(C=C)CC(c3cc(F)cc(F)c3)=NO2)CO1 (mixture of isomers)

>  <UNIT TEXT>
%

>  <NUMERIC READOUT>
85

$$$$
>  <COMPOUND>
CC1(C(=O)NC2CC=C(C(=O)NS(C)(=O)=O)C2)CC(c2cc(F)cc(F)c2)=NO1 (mixture of isomers)

>  <UNIT TEXT>
%

>  <NUMERIC READOUT>
90

$$$$
>  <COMPOUND>
C=CC1(C(=O)NC2COC(C(=O)OC)C2)CC(c2cc(F)cc(F)c2)=NO1 (stereo not shown) [Example 1.69]

>  <UNIT TEXT>
%

>  <NUMERIC READOUT>
93

$$$$
>  <COMPOUND>
COC(=O)C1C=CC(NC(=O)C2(C)CC(c3cc(F)cc(F)c3)=NO2)C1 (stereo not shown)

>  <UNIT TEXT>
%

>  <NUMERIC READOUT>
80

$$$$
>  <COMPOUND>
CC1(C(=O)NC2C=CC(C(=O)O)C2)CC(c2cc(F)cc(F)c2)=NO1 (stereo not shown)

>  <UNIT TEXT>
%

>  <NUMERIC READOUT>
75

$$$$

Hello, the source for this data is patent US20230240297A1, in case you need it.
